target: human TLR7 (Homo sapiens (Human), UniProt Q9NYK1); assay: TLR7 inhibition reporter assay (HEK-Blue SEAP); type: cell-based; conditions: HEK-Blue cells overexpressing human TLR7, gardiquimod 7.5 μM stimulation, SEAP reporter
Sequence (Q9NYK1 27-1049): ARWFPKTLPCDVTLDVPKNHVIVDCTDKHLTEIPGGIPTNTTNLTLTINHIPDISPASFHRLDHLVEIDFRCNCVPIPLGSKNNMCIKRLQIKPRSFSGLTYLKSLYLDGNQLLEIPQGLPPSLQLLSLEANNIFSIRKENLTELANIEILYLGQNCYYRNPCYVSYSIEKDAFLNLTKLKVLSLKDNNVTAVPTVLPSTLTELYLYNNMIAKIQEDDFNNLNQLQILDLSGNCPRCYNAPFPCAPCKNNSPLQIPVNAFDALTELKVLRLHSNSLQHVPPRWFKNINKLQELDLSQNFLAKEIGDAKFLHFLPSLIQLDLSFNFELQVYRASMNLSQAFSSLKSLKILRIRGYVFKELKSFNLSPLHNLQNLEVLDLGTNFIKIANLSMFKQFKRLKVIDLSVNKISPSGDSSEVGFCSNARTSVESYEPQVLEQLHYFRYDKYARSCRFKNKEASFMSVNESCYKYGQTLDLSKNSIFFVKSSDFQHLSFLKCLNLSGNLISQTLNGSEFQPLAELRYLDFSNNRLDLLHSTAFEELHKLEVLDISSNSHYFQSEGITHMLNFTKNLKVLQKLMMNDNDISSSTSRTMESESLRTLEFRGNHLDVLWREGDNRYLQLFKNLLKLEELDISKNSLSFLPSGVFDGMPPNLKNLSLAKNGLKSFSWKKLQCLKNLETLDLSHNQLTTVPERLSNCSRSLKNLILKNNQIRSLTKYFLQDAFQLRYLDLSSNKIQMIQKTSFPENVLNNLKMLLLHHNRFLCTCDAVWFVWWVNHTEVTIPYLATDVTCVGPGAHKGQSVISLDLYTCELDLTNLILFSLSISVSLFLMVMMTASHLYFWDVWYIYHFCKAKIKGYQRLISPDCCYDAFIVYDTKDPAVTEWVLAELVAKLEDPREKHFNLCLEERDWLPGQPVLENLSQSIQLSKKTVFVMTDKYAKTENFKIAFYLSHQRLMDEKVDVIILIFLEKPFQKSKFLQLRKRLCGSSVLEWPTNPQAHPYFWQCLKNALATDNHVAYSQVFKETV
So basically, if IC50 comes in under 2 nM it's Criterion met, and if it's 2 nM or more it's Criterion not met.

Previously resolved entries follow.
compound: Cc1ncc(CN(C)C2CCC(c3ccc4[nH]c(-c5cn6ncnc6c(C)c5C)c(C(C)C)c4n3)CC2)cn1 (stereo not shown) [Example 394]
cat: Criterion met
//
compound: COc1cc(-c2[nH]c3ccc(C4CCC(NC5COC5)CC4)nc3c2C(C)C)cn2ncnc12 (stereo not shown) [Example 180]
cat: Criterion not met
//
compound: COc1cc(-c2[nH]c3ccc(C4CCC(NCc5cnc(C)cn5)CC4)nc3c2C(C)C)cn2ncnc12 (stereo not shown) [Example 196]
cat: Criterion met
//
compound: COc1cc(-c2[nH]c3ccc(N4CCN(C(C)CCO)CC4)nc3c2C(C)C)cn2ncnc12 (stereo not shown) [Example 118]
cat: Criterion met
//
compound: COc1cc(-c2[nH]c3ccc(N4CCN(CC(=O)N(C)C)CC4)nc3c2C(C)C)cn2ncnc12 [Example 128]
cat: Criterion not met
//
compound: COc1cc(-c2[nH]c3ccc(N4CC(N(C)C(=O)CN(C)C)C4)nc3c2C(C)C)cn2ncnc12 [Example 28]
cat: Criterion not met

Shifting focus to the compound that follows.
Strictly below 2 nM: is that where IC50 of CCN(CCN(C)C)C(=O)c1nc2c(C(C)C)c(-c3cc(OC)c4ncnn4c3)[nH]c2cc1C [Example 6] sits?
Criterion met

* * *

target: human TLR9 (Homo sapiens (Human)); experiment: TLR9 inhibition reporter assay (HEK-Blue SEAP); conditions: read-out: TLR9 IC50; HEK-Blue cells overexpressing human TLR9, SEAP reporter, ODN2006 5 nM;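 note: SEAP driven by an IFN-β minimal promoter with NF-κB and AP-1 sites, read after 22 h, compounds dosed 0.05 nM–50 µM, inhibition scaled between agonist plus DMSO and reference-inhibitor wells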
Sequence (Q9NR96 26-1032): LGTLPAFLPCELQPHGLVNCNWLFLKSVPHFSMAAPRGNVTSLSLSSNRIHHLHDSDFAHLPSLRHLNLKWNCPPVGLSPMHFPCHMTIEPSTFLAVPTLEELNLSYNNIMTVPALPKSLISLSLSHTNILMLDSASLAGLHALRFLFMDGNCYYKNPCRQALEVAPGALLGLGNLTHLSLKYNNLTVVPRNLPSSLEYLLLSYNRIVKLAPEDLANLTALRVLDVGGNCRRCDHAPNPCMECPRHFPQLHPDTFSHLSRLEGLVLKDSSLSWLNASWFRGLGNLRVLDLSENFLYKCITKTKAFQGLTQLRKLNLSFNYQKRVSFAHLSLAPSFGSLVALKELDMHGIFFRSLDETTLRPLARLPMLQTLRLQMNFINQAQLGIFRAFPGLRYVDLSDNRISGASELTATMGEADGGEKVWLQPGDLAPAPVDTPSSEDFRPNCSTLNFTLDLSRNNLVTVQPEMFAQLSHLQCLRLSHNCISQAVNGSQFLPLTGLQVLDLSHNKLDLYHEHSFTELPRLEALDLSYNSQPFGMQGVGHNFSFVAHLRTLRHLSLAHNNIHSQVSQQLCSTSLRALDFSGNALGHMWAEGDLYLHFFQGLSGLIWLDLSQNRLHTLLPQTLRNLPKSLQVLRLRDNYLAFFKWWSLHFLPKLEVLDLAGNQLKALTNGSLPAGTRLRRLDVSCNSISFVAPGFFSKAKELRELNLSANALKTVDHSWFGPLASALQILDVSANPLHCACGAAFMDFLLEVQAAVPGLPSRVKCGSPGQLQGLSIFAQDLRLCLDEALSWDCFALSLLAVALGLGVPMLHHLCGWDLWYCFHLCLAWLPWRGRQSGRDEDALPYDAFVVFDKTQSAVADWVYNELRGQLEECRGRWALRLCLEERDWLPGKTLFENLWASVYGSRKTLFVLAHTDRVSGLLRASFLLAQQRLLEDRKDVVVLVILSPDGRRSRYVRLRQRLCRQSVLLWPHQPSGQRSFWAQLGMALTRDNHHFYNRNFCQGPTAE
The reader will find reported pIC50 values listed item by item below.
// scale note: pIC50 = -log10(conc_M); give the bare number

Before answering, review these 2 worked examples.
compound: COc1cc(-c2[nH]c3ccc(C4CCC(NCC5(C)COC5)C4)nc3c2C(C)C)cn2ncnc12 (stereo not drawn) [Example 728]
pIC50: 5.45

compound: COc1cc(-c2[nH]c3ccc(C4CCC(NCC5(C)COC5)C4)nc3c2C(C)C)cn2ncnc12 (stereo not drawn) [Example 718]
pIC50: 5.21

Consider the compound shown here: COc1cc(-c2[nH]c3cc(C)c(C4CCN(CC(=O)N(C)C)CC4)nc3c2C(C)C)cn2ncnc12 [Example 584] What is its recorded pIC50?
5.70

Thanks! And Cc1c(-c2[nH]c3ccc(C4CCC(N(C)C5COC5)CC4)nc3c2C(C)C)cn2ncnc2c1C (stereo not drawn) [Example 401] ?
5.24

Thanks! And Cc1c(-c2[nH]c3ccc(C4CCN(C(=O)CN(C)C)CC4)nc3c2C(C)C)cn(C)c(=O)c1Cl [Example 570] ?
6.84

Thanks! And Cc1cc2[nH]c(-c3cc(C)c4ncnn4c3)c(C(C)C)c2nc1C1CCN(CC(C)(C)O)CC1 [Example 572] ?
5.92

Thanks! And Cc1cc(-c2[nH]c3ccc(C4CCN(CCS(C)(=O)=O)CC4)nc3c2C(C)C)cn2ncnc12 [Example 552] ?
5.39

Thanks! And COc1cc(-c2[nH]c3ccc(OC4CN(C5CCOCC5)C4)nc3c2C(C)C)cn2ncnc12 [Example 595] ?
4.96

Thanks! And Cc1cc(-c2[nH]c3ccc(C4CCN(C5COC5)CC4)nc3c2C(C)C)cn2ncnc12 [Example 534] ?
5.37

Thanks! And COc1cc(-c2[nH]c3ccc(C4CN(CC(N)=O)C4)nc3c2C(C)C)cn2ncnc12 [Example 645] ?
5.39

Thanks! And COc1cc(-c2[nH]c3ccc(C4CCN(CC(N)=O)CC4)nc3c2C(C)C)cn2ncnc12 [Example 558] ?
5.47
